- Tested on: HCT-15 colon
- Measurement description: NCI-60 one-dose screen, 48 h
- Condition: 10 µM unless noted
About 83,000 compounds went through this panel and 20% of them were active in at least one assay; those are over-represented in the sample as a whole. Active and inactive are the calls of the source. The calls were made as follows: active = growth percent below 10; inactive = the rest.
Respond with a class label; see active, inactive

Incoming: Per the records of this test, what outcome belongs to O=C(/C=C/c1ccccc1)Nc1ncc(Cc2ccccc2)s1 ?
Outgoing: inactive

Incoming: Per the records of this test, what outcome belongs to O=C(/C=C/c1ccc(Br)cc1)c1ccc(-n2cc(CN3CCN(c4cc5c(cc4F)c(=O)c(C(=O)O)cn5C4CC4)CC3)nn2)cc1 ?
Outgoing: inactive

Incoming: Per the records of this test, what outcome belongs to S=c1[nH]c2cc(Cl)ccc2o1 ?
Outgoing: inactive

Incoming: Per the records of this test, what outcome belongs to Nc1nc(C(=O)N/N=C/c2ccc(N3CCOCC3)cc2)nn1-c1ccc(S(N)(=O)=O)cc1 ?
Outgoing: inactive

Incoming: Per the records of this test, what outcome belongs to CC(/C=C1\SC(=S)N(CC(=O)NC(Cc2c[nH]c3ccccc23)C(=O)O)C1=O)=C\c1ccccc1 (stereo not given) ?
Outgoing: inactive

Incoming: Per the records of this test, what outcome belongs to COc1ccc(C2C(C#N)=C(N)Oc3c2sc2c(Br)cccc32)cc1 (stereo not given) ?
Outgoing: inactive

Incoming: Per the records of this test, what outcome belongs to COc1cc2c3c(c1O)-c1ccccc1[C@@H]1OC(=O)N(CC2)[C@H]31 ?
Outgoing: inactive

Incoming: Per the records of this test, what outcome belongs to Cc1ncc(C(=O)Nc2ccc(CN3CCN(C)CC3)c(C(F)(F)F)c2)cc1C#Cc1cnc(N)c2ccncc12 ?
Outgoing: active

---

- Test system: CCRF-CEM leukemia
- Measurement description: NCI-60 one-dose screen, 48 h
- Condition: 10 µM unless noted
This is part of a sample that, as a whole, favours compounds with a hit. Of some 83,000 tested, about 20% had one in any assay. Calls of active or inactive are those of the source. How the source made its calls: active means growth percent below 10; inactive means the rest.
Respond with a class label; see True (active), False (inactive)

molecule=CCN(CC)c1ccc(/C=N/NC(=O)c2ccc(Nc3ccnc(C(F)(F)F)c3)cc2)c(O)c1 category_label=False
molecule=COc1ccc(/C=C/C(=O)c2ccc(Nc3nc(Nc4ccc(F)cc4)nc(Nc4ccc(Cl)cc4)n3)cc2)cc1 category_label=True
molecule=Clc1ccc(-c2cn3ccsc3n2)c(Cl)c1Cl category_label=False
molecule="CC1=NN(c2ccc(Cl)cc2)CC1(C)N=O (centres undefined)" category_label=False

Incoming: Per the records of this test, what outcome belongs to CCOC(=O)N1CCN(S(=O)(=O)c2oc(-c3ccc(Cl)cc3)nc2C#N)CC1 ?
Outgoing: True

Incoming: Per the records of this test, what outcome belongs to CCOC(=O)C1=C(c2ccccc2)N=c2s/c(=C/c3ccc(Br)cc3)c(=O)n2C1c1ccc(O)cc1 (centres undefined) ?
Outgoing: False

Incoming: Per the records of this test, what outcome belongs to COc1cc(C2=NN(C(C)=O)C(c3ccc(N(C)C)cc3)C2)cc(OC)c1OC (centres undefined) ?
Outgoing: False

Incoming: Per the records of this test, what outcome belongs to Brc1ccc(-c2cnc3nonc3n2)cc1 ?
Outgoing: False

Incoming: Per the records of this test, what outcome belongs to CC1(C)CC[C@]2(C(=O)N3CCOCC3)CC[C@]3(C)C(=CC[C@@H]4[C@@]5(C)C/C(=C/c6ccncc6)C(=O)C(C)(C)[C@@H]5CC[C@]43C)[C@@H]2C1 ?
Outgoing: True

---

- System: RXF 393 renal
- Measurement description: NCI-60 one-dose screen, 48 h (100 = growth as untreated, 0 = no growth, -100 = all killed)
- Condition: 10 µM unless noted
About 83,000 compounds went through this panel and 20% of them were active in at least one assay; those are over-represented in the sample as a whole. The source made the active and inactive calls. How the source made its calls: active means growth percent below 10; inactive means the rest.
Result type: growth

As a guide, the following entries are already answered.
molecule="COc1cccc(C(=O)OCC(O)C(=O)NC23CC4CC(CC(C4)C2)C3)c1 (stereo not given)" measured_value="109% (inactive)"
molecule=CCCCCCCCCCCCCCCCCCOc1ccccc1CC(=O)NCC[N+]1(C)CCOCC1 measured_value="-39.4% (active)"
molecule="CCCCCCC(CCCC)COC(=O)c1ccc(Cl)cc1 (stereo not given)" measured_value="105% (inactive)"
molecule=CCN(CC)CCN(CCN(CC)CC)c1ccccc1 measured_value="90.8% (inactive)"
molecule=COc1ccc(Cn2cc(C(=O)N=Nc3c(O)[nH]c4c(Cl)cccc34)nn2)cc1 measured_value="109% (inactive)"
molecule=Oc1c(I)cc(-c2nc3ccccc3s2)cc1CN(Cc1ccccn1)Cc1ccccn1 measured_value="33.3% (inactive)"
molecule=COc1ccc(Nc2ncc(C(N)=O)c(NCCCNC(=O)C3CCC3)n2)cc1 measured_value="17% (inactive)"
molecule="COC(=O)C1=C(C)NC(C)=C(C(=O)OCC(C)C)C1c1ccccc1[N+](=O)[O-] (stereo not given)" measured_value="70.2% (inactive)"
molecule=CC(=O)N(Cc1ccccc1)c1nc2ccc(O)c(CN(C)C)c2s1 measured_value="98.2% (inactive)"

// next entry
Incoming: If you can, please state the reported growth value of COc1ccc(C/C(C)=C(\c2ccc(O)cc2)c2ccc(OCCN3CCCC3)cc2)cc1 .
Outgoing: 136% (inactive)

---

- Tested on: DU-145 prostate
- Measurement description: NCI-60 one-dose screen, 48 h (100 = growth as untreated, 0 = no growth, -100 = all killed)
- Condition: 10 µM unless noted
The panel holds about 83,000 compounds, 20% with a hit somewhere; the sample as a whole holds those more often.
Result type: growth (%)
Enter your answer as a number in %; do not include the unit.

smiles_structure=CCOC(=O)c1n[nH]n2c1nc(=O)c1cnn(C)c12 result_type=growth measured_value=98.5

Incoming: If you can, please state the reported growth value of c1ccc(CNc2ccc3nc(CCC4CCCCC4)[nH]c3c2)cc1 .
Outgoing: 80.1

Incoming: If you can, please state the reported growth value of c1ccc(CCc2ccccc2-c2cc(-c3ccccc3)on2)cc1 .
Outgoing: 92

Incoming: If you can, please state the reported growth value of CC1=C(C(=O)n2c3ccccc3c3ccccc32)C(c2cccc([N+](=O)[O-])c2)C(C(=O)n2c3ccccc3c3ccccc32)=C(C)N1 .
Outgoing: 103

---

- System: SK-MEL-5 melanoma
- Measurement description: NCI-60 one-dose screen, 48 h (100 = growth as untreated, 0 = no growth, -100 = all killed)
- Condition: 10 µM unless noted
About 83,000 compounds went through this panel and 20% of them were active in at least one assay; those are over-represented in the sample as a whole.
Result type: growth (%)
Enter your answer as a number in %; do not include the unit.

As a guide, the following entries are already answered.
compound=C=C(CN1CC=CCC1)[C@@H]1CC[C@]2(CO)CC[C@]3(C)[C@H](CC[C@@H]4[C@@]5(C)CC[C@H](O)C(C)(C)[C@@H]5CC[C@]43C)[C@@H]12 measured_value=96.2
compound=COc1ccc(NC(=O)c2ccc(C(=O)Nc3ccc(OC)cc3OC)cc2)c(OC)c1 measured_value=96.7
compound="COc1ccc(C2CC(c3ccc(Nc4nc(Nc5ccc(F)cc5)nc(Nc5ccc(F)cc5)n4)cc3)=NN2C(C)=O)cc1 (centres undefined)" measured_value=71.6
compound=Cc1[nH]c(C(=O)Nc2cccc(OC3CCNCC3)c2)c(Cl)c1Cl measured_value=85.5
compound=COC(=O)c1c2c(n3ccc(C)cc13)C(=O)c1ccccc1C2=O measured_value=28.5

Incoming: Lab note: need growth with SK-MEL-5 melanoma for entry CCC(C)Nc1ccc(NC(C)CC)cc1 (centres undefined) , please look it up.
Outgoing: 100

Incoming: Lab note: need growth with SK-MEL-5 melanoma for entry O=C(CN1CCN(c2cc3c(cc2F)c(=O)c(C(=O)O)cn3C2CC2)CC1)N/N=C/c1ccncc1 , please look it up.
Outgoing: 96.9

Incoming: Lab note: need growth with SK-MEL-5 melanoma for entry C(/C=C/c1ccccc1)=Nc1ccc(CCc2ccc(N=C/C=C/c3ccccc3)cc2)cc1 , please look it up.
Outgoing: 96.6

Incoming: Lab note: need growth with SK-MEL-5 melanoma for entry COc1cc(Nc2ncccc2NC(=O)c2cn(Cc3cccc(Oc4ccccc4)c3)nn2)cc(OC)c1 , please look it up.
Outgoing: 60

---

- Test system: NCI-H23 lung
- Measurement description: NCI-60 one-dose screen, 48 h (100 = growth as untreated, 0 = no growth, -100 = all killed)
- Condition: 10 µM unless noted
About 83,000 compounds went through this panel and 20% of them were active in at least one assay; those are over-represented in the sample as a whole.
Result type: growth (%)
Enter your answer as a number in %; do not include the unit.

molecule=CCCCCCCC/C=C\CCCCCCCCOc1ccc(CC(=O)NCC[N+](C)(C)C)cc1 unit_abbreviation=% measured_value=67.2
molecule=Cc1ccc(/C=C2\CN(C(=O)C(Cl)Cl)C/C(=C\c3ccc(C)cc3)C2=O)cc1 unit_abbreviation=% measured_value=-35.9
molecule="COc1ccc(C2=NN(C(C)=O)C(c3ccc(Oc4ccnc5cc(Cl)ccc45)c(OC)c3)C2)cc1 (stereo not given)" unit_abbreviation=% measured_value=65.9

Incoming: If you can, please state the reported growth value of O=C1/C(=C/c2ccccc2)CN(C(=O)c2cccnc2)C/C1=C\c1ccccc1 .
Outgoing: -30.5

Incoming: If you can, please state the reported growth value of COc1ccccc1NC(=O)c1ccc(/C=C/C(=O)c2nccn2C)cc1 .
Outgoing: -35.7

Incoming: If you can, please state the reported growth value of Cc1ccc(-c2nc(C#N)c(S(=O)(=O)NCCO)o2)cc1 .
Outgoing: 82.3

Incoming: If you can, please state the reported growth value of COC(c1ccc2ccccc2c1)C(C)C(F)F (stereo not given) .
Outgoing: 95.7

Incoming: If you can, please state the reported growth value of Cn1c(=O)c2c(nc(NC3=NS(=O)(=O)c4ccccc43)n2Cc2ccccc2)n(C)c1=O .
Outgoing: 92.5

Incoming: If you can, please state the reported growth value of CC(C)CCSc1nc(Nc2ccccc2)c(C#N)c(-c2ccccc2)n1 .
Outgoing: 50.1

Incoming: If you can, please state the reported growth value of COc1ccc2nc(SCC(=O)Nc3ccccc3C)[nH]c2c1 .
Outgoing: 101
